Provenance of the data: paper PMC3627597

ASSAYED TARGET: T1, BAFF-R (B-cell activating factor receptor) (human, UniProt Q96RJ3 1-76)
T1 sequence: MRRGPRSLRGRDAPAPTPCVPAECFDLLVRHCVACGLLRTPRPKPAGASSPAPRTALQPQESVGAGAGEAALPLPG
TEST DESCRIPTION: EMSA
# Lookup of reported Kd keyed by entry
OBSERVABLE: Kd (nM)

1) R-1-STAT3 27-mer SWAP chimera (structured_RNA, 2'-F U and C in aptamer-antisense strand; S7 3' ga are DNA) RNA 1: GGGAGGACGAUGCGGGAGGCUCAACAAUGAUAGAGCCCGCAAUGUUGAUAGUUGUGCCCAGUCUGCAGACGACUGCCCGAUUUUUUUUUCAGUCGUAUCUUUCUGCAGCUUCCGU RNA 2: GGAAGCUGCAGAAAGAUACGACUGA	56
2) R-1-STAT3 27-mer OVH chimera (structured_RNA, 2'-F U and C in aptamer-sense strand) RNA 1: GGGAGGACGAUGCGGGAGGCUCAACAAUGAUAGAGCCCGCAAUGUUGAUAGUUGUGCCCAGUCUGCAGACGACUCGCCCGAUUUUUUUUGAGAACGGAAGCUGCAGAAAGAUACGA RNA 2: GUAUCUUUCUGCAGCUUCCGUUCUC	35
